# System: MALME-3M melanoma
# protocol-notes: NCI tumour cell line growth inhibition, 48 h
Where a SMILES comes first, the peptide text is derived from it. The star is where a group is joined. Boc = CC(C)(C)OC(=O)*

compound: CN1C(=O)/C(=C/c2c(Cl)[nH]c3ccccc23)c2ccccc21
TGI: > 100 µM
--
compound: CC(C)OP(=O)(OC(C)C)C([CH2][Sn]([CH3])([CH3])[Cl])P(=O)(OC(C)C)OC(C)C
TGI: 33.2 µM
--
compound: O=C(O[C@H]1CN[C@H](C#Cc2cc3ncnc(Nc4ccc5c(cnn5Cc5ccccc5)c4)c3s2)C1)N1CCOCC1
TGI: 23.7 µM
--
compound: COC(=O)[C@@]12CCCC(=O)[C@@H]1[C@H]1CCC[C@H]12
TGI: > 100 µM
--
compound: CC(NC(=O)OC(C)(C)C)C(=O)NC(Cc1ccccc1)C(=O)NCC(=O)O (stereo not drawn) (Boc-Ala-Phe-Gly-OH; configuration not given here)
TGI: > 100 µM
--
compound: Nc1nc(=S)c2c(ncn2CC(O)CO)[nH]1 (stereo not drawn)
TGI: > 100 µM
--
compound: CCOC(=O)C(Cc1ccc([N+](=O)[O-])cc1)NC(=O)CC1c2ccccc2-c2ccccc21 (stereo not drawn)
TGI: 42.3 µM
--
compound: CC1=CCCC(C)(O)C2CC(CCC3(C)OC3CC1)C(C)C(=O)O2 (stereo not drawn)
TGI: > 100 µM
